# tested system: HLA A*3001 (Homo sapiens, UniProt P04439, D140H/D185E/E176W/F33S/G80R/H175R/K168Q/R138E/R41S)
# measurement description: biochemical
Where a SMILES comes first, the peptide text is derived from it.
What IC50 was measured for each of the following?
Give the quantity in nM, number only.

GET /value?item= CC(C)C[C@H](NC(=O)[C@H](CO)NC(=O)[C@H](CO)NC(=O)[C@H](CCC(=O)O)NC(=O)[C@H](CCCCN)NC(=O)[C@H](CCCCN)NC(=O)[C@H](Cc1ccccc1)NC(=O)[C@@H](N)CCCNC(=N)N)C(=O)N[C@@H](C)C(=O)O [3102.0023] (H-RFKKESSLA-OH) &field=IC50 returns 0.31

GET /value?item= C[C@H](NC(=O)[C@H](C)NC(=O)[C@H](CC(N)=O)NC(=O)[C@H](CCC(N)=O)NC(=O)[C@@H]1CCCN1C(=O)[C@H](CC(=O)O)NC(=O)[C@H](CCCNC(=N)N)NC(=O)[C@@H](NC(=O)[C@@H](N)Cc1c[nH]cn1)[C@@H](C)O)C(=O)O [3102.0224] (H-HTRDPQNAA-OH) &field=IC50 returns 0.91

###

# tested system: HLA B*1503 (Homo sapiens, UniProt P01889, A329T/A93T/A95T/C349S/D201E/D98Y/E187L/E204Q/K202T/N87E/Q94N/R155S/R180L/S121R/S35A/V306I/V36M/Y140S/Y91S)
# measurement description: biochemical
# Assay type: binding
Where a SMILES comes first, the peptide text is derived from it.
What IC50 was measured for each of the following?
Give the quantity in nM, number only.

GET /value?item= CC(C)C[C@H](NC(=O)[C@@H](N)CCCNC(=N)N)C(=O)N[C@@H](CC(N)=O)C(=O)N1CCC[C@H]1C(=O)N[C@@H](CCC(=O)O)C(=O)N[C@H](C(=O)N[C@@H](CO)C(=O)N[C@@H](Cc1ccc(O)cc1)C(=O)N[C@@H](Cc1ccccc1)C(=O)O)C(C)C [3102.1097] (H-RLNPEVSYF-OH) &field=IC50 returns 0.32

GET /value?item= CSCC[C@H](NC(=O)[C@@H](NC(=O)[C@H](CO)NC(=O)[C@@H](NC(=O)[C@H](Cc1ccc(O)cc1)NC(=O)[C@@H](NC(=O)[C@H](Cc1ccccc1)NC(=O)[C@H](CCCCN)NC(=O)[C@@H](N)CO)C(C)C)C(C)C)C(C)C)C(=O)O [3102.1213] (H-SKFVYVSVM-OH) &field=IC50 returns 1.6

GET /value?item= CC[C@H](C)[C@H](N)C(=O)N[C@@H](CCC(N)=O)C(=O)N[C@H](C(=O)N[C@@H](CC(C)C)C(=O)N[C@@H](CC(N)=O)C(=O)NCC(=O)N[C@@H](CCCCN)C(=O)N[C@@H](Cc1c[nH]cn1)C(=O)N[C@@H](Cc1ccccc1)C(=O)O)[C@@H](C)O [3102.1105] (H-IQTLNGKHF-OH) &field=IC50 returns 11

###

# tested system: HLA B*5802 (Homo sapiens, UniProt P01889, A329T/C349S/D201E/D98Y/E176V/E187L/E204Q/E69T/G107R/I218V/I90N/K202T/L105A/N104I/N87E/Q89R/Q94S/R106L/R155S/R180L/R86G/S101N/S121W/S35A/S48A/V127L/V306I/V36M/Y140S/Y91M)
# Assay type: binding
property: Normalized average relative binding affinity (ARB), HLA B*5802
Enter the number alone.

GET /value?item= XSXXXXXXX [3064.0036] &field=Normalized average relative binding affinity (ARB), HLA B*5802 returns 1.0

GET /value?item= YXXXXXXXX [3064.0020] &field=Normalized average relative binding affinity (ARB), HLA B*5802 returns 0.46

GET /value?item= EXXXXXXXX [3064.0004] &field=Normalized average relative binding affinity (ARB), HLA B*5802 returns 0.066

GET /value?item= XXGXXXXXX [3064.0046] &field=Normalized average relative binding affinity (ARB), HLA B*5802 returns 0.17

GET /value?item= XXNXXXXXX [3064.0052] &field=Normalized average relative binding affinity (ARB), HLA B*5802 returns 0.098

GET /value?item= XXVXXXXXX [3064.0058] &field=Normalized average relative binding affinity (ARB), HLA B*5802 returns 0.56

GET /value?item= XMXXXXXXX [3064.0031] &field=Normalized average relative binding affinity (ARB), HLA B*5802 returns 0.17

GET /value?item= TXXXXXXXX [3064.0017] &field=Normalized average relative binding affinity (ARB), HLA B*5802 returns 0.062

GET /value?item= XXQXXXXXX [3064.0054] &field=Normalized average relative binding affinity (ARB), HLA B*5802 returns 0.098

GET /value?item= XXWXXXXXX [3064.0059] &field=Normalized average relative binding affinity (ARB), HLA B*5802 returns 0.95

GET /value?item= XHXXXXXXX [3064.0027] &field=Normalized average relative binding affinity (ARB), HLA B*5802 returns 0.030

GET /value?item= XXFXXXXXX [3064.0045] &field=Normalized average relative binding affinity (ARB), HLA B*5802 returns 0.41

GET /value?item= AXXXXXXXX [3064.0001] &field=Normalized average relative binding affinity (ARB), HLA B*5802 returns 0.065

GET /value?item= XXHXXXXXX [3064.0047] &field=Normalized average relative binding affinity (ARB), HLA B*5802 returns 0.42

GET /value?item= XGXXXXXXX [3064.0026] &field=Normalized average relative binding affinity (ARB), HLA B*5802 returns 0.077

###

What Normalized average relative binding affinity (ARB), H-2 Kk was measured for each of the following?
# tested system: H-2 K^k (Mus musculus)
# Type: binding
Enter the number alone.

GET /value?item= XXHXXXXXX [3064.0047] &field=Normalized average relative binding affinity (ARB), H-2 Kk returns 0.72

GET /value?item= NXXXXXXXX [3064.0012] &field=Normalized average relative binding affinity (ARB), H-2 Kk returns 0.80

GET /value?item= XXYXXXXXX [3064.0060] &field=Normalized average relative binding affinity (ARB), H-2 Kk returns 0.52

GET /value?item= XYXXXXXXX [3064.0040] &field=Normalized average relative binding affinity (ARB), H-2 Kk returns 0.0099

GET /value?item= XXRXXXXXX [3064.0055] &field=Normalized average relative binding affinity (ARB), H-2 Kk returns 0.19

GET /value?item= XSXXXXXXX [3064.0036] &field=Normalized average relative binding affinity (ARB), H-2 Kk returns 0.014

GET /value?item= KXXXXXXXX [3064.0009] &field=Normalized average relative binding affinity (ARB), H-2 Kk returns 0.082

GET /value?item= DXXXXXXXX [3064.0003] &field=Normalized average relative binding affinity (ARB), H-2 Kk returns 0.43

GET /value?item= XHXXXXXXX [3064.0027] &field=Normalized average relative binding affinity (ARB), H-2 Kk returns 0.0052

GET /value?item= XXIXXXXXX [3064.0048] &field=Normalized average relative binding affinity (ARB), H-2 Kk returns 0.26

GET /value?item= CXXXXXXXX [3064.0002] &field=Normalized average relative binding affinity (ARB), H-2 Kk returns 0.51

GET /value?item= YXXXXXXXX [3064.0020] &field=Normalized average relative binding affinity (ARB), H-2 Kk returns 0.63

GET /value?item= XXMXXXXXX [3064.0051] &field=Normalized average relative binding affinity (ARB), H-2 Kk returns 1.0

GET /value?item= XPXXXXXXX [3064.0033] &field=Normalized average relative binding affinity (ARB), H-2 Kk returns 0.017

###

# tested system: HLA B*0801 (Homo sapiens, UniProt P01889, A93T/A95T/D138N/E176V/E187T/K202T/Q94N/R180D/S35A/V36M/Y33D/Y91F)
# measurement description: biochemical
pIC50: −log10 of the molar value. Where a SMILES comes first, the peptide text is derived from it.
Quick rule: pIC50 of at least 9 means class 1, below that means class 0.

Could you verify whether the entry CSCC[C@H](NC(=O)[C@H](CC(C)C)NC(=O)[C@@H](N)CCSC)C(=O)N[C@@H](CCC(=O)O)C(=O)N[C@H](C(=O)N[C@@H](Cc1ccccc1)C(=O)N1CCC[C@H]1C(=O)N[C@@H](CCC(N)=O)C(=O)N[C@@H](CC(C)C)C(=O)O)C(C)C [3102.0725] (H-MLMEVFPQL-OH) shows pIC50 of no less than 9?
class 0

Could you verify whether the entry CC(C)C[C@H](NC(=O)[C@@H]1CCCN1C(=O)[C@H](CO)NC(=O)[C@H](Cc1ccccc1)NC(=O)[C@H](Cc1ccc(O)cc1)NC(=O)[C@H](CCCCN)NC(=O)[C@H](C)NC(=O)[C@@H](NC(=O)[C@H](C)N)C(C)C)C(=O)O [3102.0978] (H-AVAKYFSPL-OH) shows pIC50 of no less than 9?
class 0

Could you verify whether the entry CSCC[C@H](NC(=O)[C@H](Cc1ccccc1)NC(=O)[C@H](CCSC)NC(=O)[C@@H](N)CO)C(=O)N[C@@H](CO)C(=O)N[C@@H](CC(C)C)C(=O)N[C@@H](CC(C)C)C(=O)N1CCC[C@H]1C(=O)N[C@@H](C)C(=O)O [3102.0656] (H-SMFMSLLPA-OH) shows pIC50 of no less than 9?
class 0

Could you verify whether the entry CC[C@H](C)[C@H](NC(=O)[C@H](CO)NC(=O)CNC(=O)[C@H](CCCCN)NC(=O)[C@H](CCCNC(=N)N)NC(=O)[C@H](CC(C)C)NC(=O)[C@H](CCCNC(=N)N)NC(=O)[C@H](CCCNC(=N)N)NC(=O)[C@@H](N)Cc1ccccc1)C(=O)O [3102.0773] (H-FRRLRKGSI-OH) shows pIC50 of no less than 9?
class 0

Could you verify whether the entry CC(C)C[C@H](NC(=O)[C@@H]1CCCN1C(=O)[C@H](CCCNC(=N)N)NC(=O)[C@H](Cc1ccccc1)NC(=O)[C@H](CCCCN)NC(=O)[C@H](CCCCN)NC(=O)[C@H](CCCNC(=N)N)NC(=O)[C@H](Cc1ccc(O)cc1)NC(=O)[C@@H](N)Cc1ccccc1)C(=O)O [3102.0608] (H-FYRKKFRPL-OH) shows pIC50 of no less than 9?
class 1

Could you verify whether the entry CC[C@H](C)[C@H](NC(=O)[C@H](CO)NC(=O)[C@H](Cc1c[nH]cn1)NC(=O)[C@H](Cc1ccc(O)cc1)NC(=O)[C@H](CCCNC(=N)N)NC(=O)[C@@H]1CCCN1C(=O)[C@@H](N)Cc1ccccc1)C(=O)N[C@@H](CCC(=O)O)C(=O)N[C@@H](CC(C)C)C(=O)O [3102.0626] (H-FPRYHSIEL-OH) shows pIC50 of no less than 9?
class 1

Could you verify whether the entry CC(C)C[C@H](NC(=O)[C@H](CCCNC(=N)N)NC(=O)[C@H](CCCCN)NC(=O)[C@H](CC(N)=O)NC(=O)[C@H](CCCNC(=N)N)NC(=O)[C@H](CC(C)C)NC(=O)[C@H](CCCNC(=N)N)NC(=O)[C@H](CCCNC(=N)N)NC(=O)[C@@H](N)Cc1c[nH]cn1)C(=O)O [3102.0641] (H-HRRLRNKRL-OH) shows pIC50 of no less than 9?
class 0

Could you verify whether the entry CC[C@H](C)[C@H](NC(=O)[C@H](CCCCN)NC(=O)[C@@H](NC(=O)[C@H](CCCNC(=N)N)NC(=O)[C@H](CC(C)C)NC(=O)[C@H](CC(N)=O)NC(=O)[C@H](CC(C)C)NC(=O)[C@@H](N)CO)[C@@H](C)CC)C(=O)N[C@@H](CC(C)C)C(=O)O [3102.0536] (H-SLNLRIKIL-OH) shows pIC50 of no less than 9?
class 0

Could you verify whether the entry CSCC[C@H](NC(=O)[C@H](CC(N)=O)NC(=O)[C@H](Cc1ccccc1)NC(=O)[C@H](Cc1ccccc1)NC(=O)[C@H](CCCNC(=N)N)NC(=O)[C@H](CO)NC(=O)[C@H](CC(C)C)NC(=O)[C@H](CC(C)C)NC(=O)[C@H](C)N)C(=O)O [3102.0744] (H-ALLSRFFNM-OH) shows pIC50 of no less than 9?
class 0
